# EXPERIMENTAL PROTOCOL: chemical genetic growth profiling, strain panel (AID 1159580);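 also: tested at 20 µM; growth read once vehicle control cultures reached saturation at 30 °C; 1 = growth at the plate median or of vehicle wells; lower values mean less growth of the strain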
# MEASUREMENT SETUP: S. cerevisiae deletion strains, growth OD, locus YDL017W, strain CDC7, hits give low values
Among all 5,500 compounds or so, about 2,000 (36%) were called active. About 18% were inconclusive and are not listed. This is one part of the list.
Catalogue of normalized growth readings, one per entry.
Enter a number only.

Sample answers from the record:
Cn1cc(Br)c(-c2cccc(NS(=O)(=O)c3ccc(Cl)cc3)c2)n1 = 0.987
CCOC(=O)C(O)(c1ccc(NC(=O)c2ccc(Cl)c(Cl)c2)cc1)C(F)(F)F (stereo not drawn) = 0.997
O=C(Nc1ccc(F)cc1)c1cc(Br)ccc1O = 0.898
C=CCC1C(=O)N(S(=O)(=O)c2ccc(Cl)cc2)N=C1CCC (stereo not drawn) = 0.996
COC(=O)c1cccc(NS(=O)(=O)c2ccc(Cl)c(Cl)c2)c1 = 0.978

Lookup: # query: normalized growth of entry CC(=O)c1ccc(Sc2ccccc2)c([N+](=O)[O-])c1
Found: 0.879

Lookup: One more compound: O=[N+]([O-])c1ccc(Sc2ccccc2)c([N+](=O)[O-])c1
Found: 0.89

Lookup: One more compound: O=C1c2ccccc2C(=O)c2sccc21
Found: 0.72

---

# EXPERIMENTAL PROTOCOL: chemical genetic growth profiling, strain panel (AID 1159580)
# MEASUREMENT SETUP: S. cerevisiae deletion strains, growth OD, locus YML016C, strain PPZ1, hits give low values
The whole screen tested about 5,500 compounds, of which about 2,000 (36%) were called active. Inconclusive results (about 18%) are left out. The list shows a part of the results.
READOUT KIND: normalized growth
Enter a number only.

Cc1cc(O)c2c(c1)C(=O)c1cc(O)cc(O)c1C2=O = 0.916
O=C(CCc1ccc(O)cc1)c1c(O)cc(O)cc1O = 1.01
Cn1c(=O)c2c(ncn2C)n(C)c1=O = 0.995
O=C(O)CCC(=O)OC[C@@H](NC(=O)C(Cl)Cl)[C@H](O)c1ccc([N+](=O)[O-])cc1 = 0.979
CC(C)OC(=O)Nc1cccc(Cl)c1 = 0.993
COc1cc2c(cc1OC)C(C)NCC2 (stereo unspecified) = 0.988

Okay, next one:
Lookup: # query: normalized growth of entry C[C@]12CC[C@@H](O)C[C@H]1CCc1ccccc12
Found: 1.02

---

# EXPERIMENTAL PROTOCOL: chemical genetic growth profiling, strain panel (AID 1159580)
# MEASUREMENT SETUP: S. cerevisiae deletion strains, growth OD, locus YAL040C, strain CLN3
Out of some 5,500 compounds screened, about 2,000 (36%) were called active. About 18% were inconclusive and are not listed. Rule as the data show it: active = normalized growth mostly below about 0.91 (no sharp cut-off); inconclusive = no clear call, values can overlap the other calls; inactive = mostly above about 0.92. The list shows a part of the results.
// one of YES (active), NO (inactive), no free text

Sample answers from the record:
COC[C@H]1OC(=O)c2coc3c2[C@@]1(C)C1=C(C3=O)C2CCC(=O)[C@@]2(C)C[C@H]1OC(C)=O (some centres undefined) = YES
CCn1c(=O)[nH]c2cc(Cl)c(Cl)cc21 = NO
COc1ccc2c(c1)C13CCCCC1C(C2)N(C)CC3 (centres undefined) = NO
CCCn1c(=O)c2c(ncn2C)n(CCC)c1=O = YES

We next turn to a different molecule, shown below.
Lookup: Please let me know the test result on file for O=c1cc(-c2ccccc2)[nH]c2nc(Cl)ccc12 .
Found: NO

---

# EXPERIMENTAL PROTOCOL: chemical genetic growth profiling, strain panel (AID 1159580)
# MEASUREMENT SETUP: S. cerevisiae deletion strains, growth OD, locus YHR027C, strain rpn1
Hit rate of the full screen: of about 5,500 compounds, about 2,000 (36%) were called active. Another 18% or so got no clear call; they are omitted. No stated cut-off is given here; in the data, active means normalized growth mostly below about 0.91 (no sharp cut-off); inconclusive means no clear call, values can overlap the other calls; inactive means mostly above about 0.92. The list shows a part of the results.
// one of active, inactive, no free text

Cn1c(=O)[nH]c2nc[nH]c2c1=O = inactive
Cn1c(=O)[nH]c2ncn(C)c2c1=O = inactive
COc1ccccc1OCC(O)COC(N)=O (stereo unspecified) = inactive
C=C(C)C1Cc2c(ccc3c(=O)c4c(oc23)COc2cc(OC)c(OC)cc2-4)O1 (stereo unspecified) = inactive
C[N+]12CCC(CC1)C(OC(=O)C(O)(c1ccccc1)c1ccccc1)C2 (stereo unspecified) = inactive
CC(=O)c1c(O)cc(O)cc1O = inactive

Lookup: Please let me know the test result on file for O=C(c1ccccc1)c1ccc2n1CCC2C(=O)O (stereo unspecified) .
Found: inactive

Lookup: One more compound: O=c1c(O)c(-c2ccc(O)cc2)oc2ccccc12
Found: active

Lookup: One more compound: COC1=CC23CCCN2CCc2cc4c(cc2C3C1O)OCO4 (stereo unspecified)
Found: inactive

---

# EXPERIMENTAL PROTOCOL: chemical genetic growth profiling, strain panel (AID 1159580);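 also: tested at 20 µM; growth read once vehicle control cultures reached saturation at 30 °C; 1 = growth at the plate median or of vehicle wells; lower values mean less growth of the strain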
# MEASUREMENT SETUP: S. cerevisiae deletion strains, growth OD, locus YPR141C, strain kar3, hits give low values
Among all 5,500 compounds or so, about 2,000 (36%) were called active. Not shown: some 18% with an inconclusive outcome. The list shows a part of the results.
Catalogue of normalized growth readings, one per entry.

Sample answers from the record:
C/C(=C\CO)CC[C@H](C)CCC[C@H](C)CCCC(C)C = 1.12 [resistant] (active)
COC(=O)CC1C(C)(C)C(=O)C2CC3(O)C4=CC(=O)OC(c5ccoc5)C4(C)CCC3C1(C)C2=O (stereo unspecified) = 0.99 (inactive)
CC(C)=CCC/C(C)=C/CO = 0.991 (inactive)
Cc1cc(O)c2c(c1)C(=O)c1cccc(O)c1C2=O = 1.03 (inactive)
COc1cc(O)c2c(c1)C(=O)c1cc(C)cc(O)c1C2=O = 1.01 (inactive)

Okay, next one:
Lookup: # query: normalized growth of entry CC(NC(C)(C)C)C(=O)c1cccc(Cl)c1 (stereo unspecified)
Found: 1.02 (inactive)

---

# EXPERIMENTAL PROTOCOL: chemical genetic growth profiling, strain panel (AID 1159580);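 also: tested at 20 µM; growth read once vehicle control cultures reached saturation at 30 °C; 1 = growth at the plate median or of vehicle wells; lower values mean less growth of the strain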
# MEASUREMENT SETUP: S. cerevisiae deletion strains, growth OD, locus YCL016C, strain dcc1, hits give low values
Among all 5,500 compounds or so, about 2,000 (36%) were called active. Another 18% or so got no clear call; they are omitted. Some of the results follow.
Catalogue of normalized growth readings, one per entry.
Enter a number only.

Sample answers from the record:
O=C1C=CC(=O)c2c(O)c(Cl)c(Cl)c(O)c21 = 0.0723
COc1cc([C@@H]2c3cc4c(cc3[C@H](O)[C@H]3COC(=O)[C@H]23)OCO4)cc(OC)c1OC = 0.996
Cc1cc(O)c2c(c1)C(=O)c1cccc(O)c1C2=O = 1
CC(=O)NS(=O)(=O)c1ccc(N)cc1 = 1.01

Lookup: # query: normalized growth of entry COc1cc(OC)c2c(OC)c(-c3ccc4c(c3)OCO4)c(=O)oc2c1
Found: 0.969

Lookup: One more compound: COCC1=C(C(=O)OC(C)OC(=O)OC(C)C)N2C(=O)[C@@H](NC(=O)/C(=N\OC)c3csc(N)n3)[C@H]2SC1 (stereo partly specified)
Found: 0.982

---

# EXPERIMENTAL PROTOCOL: chemical genetic growth profiling, strain panel (AID 1159580);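 also: tested at 20 µM; growth read once vehicle control cultures reached saturation at 30 °C; 1 = growth at the plate median or of vehicle wells; lower values mean less growth of the strain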
# MEASUREMENT SETUP: S. cerevisiae deletion strains, growth OD, locus YKL193C, strain SDS22, hits give low values
Hit rate of the full screen: of about 5,500 compounds, about 2,000 (36%) were called active. Roughly 18% stayed inconclusive and do not appear here. The list shows a part of the results.
READOUT KIND: normalized growth
Enter a number only.

Sample answers from the record:
O=[N+]([O-])c1ccc(NCc2ccc(Cl)c(Cl)c2)nc1 = 0.935
Cc1cc(C)c2cc(C(=O)NCCNc3ccc(C(F)(F)F)cn3)[nH]c2c1 = 0.989
Cc1csc2ncnc(N3CCN(C(=O)Nc4ccc(SC(F)(F)F)cc4)CC3)c12 = 1
S=C(NCc1cccs1)Nc1cc(Cl)cc(Cl)c1 = 0.937

Lookup: # query: normalized growth of entry O=C(Nc1ccc(F)cc1F)c1cc(Cl)ccc1O
Found: 0.941

Lookup: One more compound: NNC(=O)c1oc2nc(-c3ccccc3)cc(-c3ccccc3)c2c1N
Found: 0.977

Lookup: One more compound: COc1ccc(OC)c2nc3c(nc12)C(=O)c1ccccc1-3
Found: 0.975

Lookup: One more compound: COc1cc(C2SCCS2)cc(Br)c1OC(=O)NC(=O)c1c(Cl)cccc1Cl
Found: 0.974

Lookup: One more compound: O=[N+]([O-])c1ccc(Sc2ccccc2)c([N+](=O)[O-])c1
Found: 0.876

Lookup: One more compound: CCOC(=O)c1cnc(-c2ccccn2)[nH]c1=O
Found: 0.917

Lookup: One more compound: CC(C)Sc1c(Cl)cccc1NC(=O)Nc1cccc(C(F)(F)F)c1
Found: 0.975

// data source = PubChem BioAssay AID1159580
